- measuredOn: Syk tandem SH2 (tSH2) domain
- assayProtocol: FP; 0 mM KCl, 150 mM NaCl
Non-standard residues stand in square brackets, D forms with d. No end group written: not given here. pY = N[C@@H](Cc1ccc(OP(=O)(O)O)cc1)C(=O)O
measure: Kd (nM)
Numeric answer only, unit nM assumed.

## Task Fill blank: measured Kd of the binder NQL[pY]NELNLGRREE[pY]DVLD (also: AlexaFluor 488 label, position not given here) [ITAM-ζ1-Y2P peptide labeled with AlexaFluor488] is ____.
## Result 85.5
